- Tested on: Bacillus subtilis
- MEASUREMENT_PROTOCOL: cleaved RNA product abundance (RNA/gDNA barcode ratio) relative to median wild-type variant (ratio to wild type); higher = more accumulation of the downstream cleavage product
- EXPERIMENTAL_CONDITIONS: experiment (reporter, strain, medium): exp 8a: truncated aprE reporter, strain BJT201 with 2% xylose (RNase J1 expressed); cleavage site: glnRA (positions -5 to +31 mutated)
// label = 1 (yes) if cleaved RNA product abundance is not less than 0.4, otherwise 0 (no)

SEQUENCE_RECORD: CGACATGTCCCGCTTCTTTCATTAATCCGTAAGCAACTGTTTTGGTATATACATTTACCTTTTAAGAGGAGGAAT
EXPERIMENTAL_SYSTEM: Bacillus subtilis
CLASSIFICATION: 0 (no)
--
SEQUENCE_RECORD: CGACATGTCCCGCTTCTTTCATTAATCCGTTAGAAACTGTTTTACTATATACATTTACCTTTTAAGAGGAGGAAT
EXPERIMENTAL_SYSTEM: Bacillus subtilis
CLASSIFICATION: 1 (yes)
--
SEQUENCE_RECORD: CGACATGTCCCGCTTCTTTCATTAATCCGTTAGCAACTGTTTTGTTATATACAGTTACCTTTTAAGAGGAGGAAT
EXPERIMENTAL_SYSTEM: Bacillus subtilis
CLASSIFICATION: 0 (no)
--
SEQUENCE_RECORD: CGACATGTCCCGCTTCTTTCATTAATCCCGTTAGCAACTGTTTTGCTATATACATTTACCTTTTAAGAGGAGGAA
EXPERIMENTAL_SYSTEM: Bacillus subtilis
CLASSIFICATION: 1 (yes)
--
SEQUENCE_RECORD: CGACATGTCCCGCTTCTTTCATTAATCCGTTATCAACTGTTTTGCTATATGCATTTACCTTTTAAGAGGAGGAAT
EXPERIMENTAL_SYSTEM: Bacillus subtilis
CLASSIFICATION: 0 (no)
--
SEQUENCE_RECORD: CGACATGTCCCGCTTCTTTCATTAATACGTTAGCAAATGTTTTGCTATATACATTTACCTTTTAAGAGGAGGAAT
EXPERIMENTAL_SYSTEM: Bacillus subtilis
CLASSIFICATION: 1 (yes)
--
SEQUENCE_RECORD: CGACATGTCCCGCTTCTTTCATTAATCCGTTAGCAACTGTTTTGCAATATACATTTCCCTTTTAAGAGGAGGAAT
EXPERIMENTAL_SYSTEM: Bacillus subtilis
CLASSIFICATION: 1 (yes)

----------
// reported cleaved RNA product abundance for each item listed
- Tested on: Bacillus subtilis
- MEASUREMENT_PROTOCOL: cleaved RNA product abundance (RNA/gDNA barcode ratio) relative to median wild-type variant (ratio to wild type); higher = more accumulation of the downstream cleavage product
- EXPERIMENTAL_CONDITIONS: experiment (reporter, strain, medium): exp 4a: truncated aprE reporter, strain BJT201 with 2% xylose (RNase J1 expressed); cleavage site: cggR-gapA (positions -7 to +36 mutated)

SEQUENCE_RECORD: ACAGACGAAGGAGCCGCAAAGAAGGTATTAAGGGATGAATAATCCCCCAATATAAATATCTCTCACTTATTTAAA
EXPERIMENTAL_SYSTEM: Bacillus subtilis
cleaved RNA product abundance: 0.378

SEQUENCE_RECORD: ACAGACGAAGGAGCCGCAAAGAAGATATTAAGGGATGAATAATCCCACAATATAAATATCTCTCACTTATTTAAA
EXPERIMENTAL_SYSTEM: Bacillus subtilis
cleaved RNA product abundance: 0.311

SEQUENCE_RECORD: ACAGACGAAGGAGCCGCAAAGAGCTTATTAAGGGATGAATAATCCCTCAATATAAATATCTCTCACTTATTTAAA
EXPERIMENTAL_SYSTEM: Bacillus subtilis
cleaved RNA product abundance: 0.743

SEQUENCE_RECORD: ACAGACGAAGGAGCCGCAAAGAAGTTATTATGGGATGAATAATCCCTGAATATAAATATCTCTCACTTATTTAAA
EXPERIMENTAL_SYSTEM: Bacillus subtilis
cleaved RNA product abundance: 0.663

SEQUENCE_RECORD: ACAGACGAAGGAGCCGCAAAGAAGTTATTAAGCGATGAATAATACCTCAATATAAATATCTCTCACTTATTTAAA
EXPERIMENTAL_SYSTEM: Bacillus subtilis
cleaved RNA product abundance: 0.127

SEQUENCE_RECORD: ACAGACGAAGGAGCCGCAAATAAATTATTAAGGAATGAATAATCCCTCAATATAAATATCTCTCACTTATTTAAA
EXPERIMENTAL_SYSTEM: Bacillus subtilis
cleaved RNA product abundance: 0.195

SEQUENCE_RECORD: ACAGACGAAGGAGCCGCAAAGAAGTTATTAAGGGATAAATGATCCCTCAATATAAATATCTCTCACTTATTTAAA
EXPERIMENTAL_SYSTEM: Bacillus subtilis
cleaved RNA product abundance: 0.455

SEQUENCE_RECORD: ACAGACGAAGGAGCCGCAAAGATGTTATTAAGGGATGAATAATCCGTCAATATAAATATCTCTCACTTATTTAAA
EXPERIMENTAL_SYSTEM: Bacillus subtilis
cleaved RNA product abundance: 0.2

SEQUENCE_RECORD: ACAGACGAAGGAGCCGCAAAGAAGTTATTAAGGGATGAACAATCCTTCAATATAAATATCTCTCACTTATTTAAA
EXPERIMENTAL_SYSTEM: Bacillus subtilis
cleaved RNA product abundance: 0.58

SEQUENCE_RECORD: ACAGACGAAGGAGCCGCAATGAAGTTATTAAGGGATGAATAATCCCTGAATATAAATATCTCTCACTTATTTAAA
EXPERIMENTAL_SYSTEM: Bacillus subtilis
cleaved RNA product abundance: 0.713

SEQUENCE_RECORD: ACAGACGAAGGAGCCGCAAAGAAGTTATTAAGGGAGAATAATCCCTCAATATAAATATCTCTCACTTATTTAAAG
EXPERIMENTAL_SYSTEM: Bacillus subtilis
cleaved RNA product abundance: 0.471

SEQUENCE_RECORD: ACAGACGAAGGAGCCGCAAAGAAGTTATTAATGGATGAATTATCCCTCAATATAAATATCTCTCACTTATTTAAA
EXPERIMENTAL_SYSTEM: Bacillus subtilis
cleaved RNA product abundance: 0.0827

SEQUENCE_RECORD: ACAGACGAAGGAGCCGCAAAGAAGTTATTAAGGAATAAATAATCCCTCAATACAAATATCTCTCACTTATTTAAA
EXPERIMENTAL_SYSTEM: Bacillus subtilis
cleaved RNA product abundance: 0.0573

SEQUENCE_RECORD: ACAGACGAAGGAGCCGCAAAGAAGTTATTAAGGGATGAATATTGCCTCAATATAAATATCTCTCACTTATTTAAA
EXPERIMENTAL_SYSTEM: Bacillus subtilis
cleaved RNA product abundance: 0.107

SEQUENCE_RECORD: ACAGACGAAGGAGCCGCAAAGAAGTTATTAAGGGAAGAATAATCACTCAATATAAATATCTCTCACTTATTTAAA
EXPERIMENTAL_SYSTEM: Bacillus subtilis
cleaved RNA product abundance: 0.104

----------
- System: Bacillus subtilis
- MEASUREMENT_PROTOCOL: cleaved RNA product abundance (RNA/gDNA barcode ratio) relative to median wild-type variant (ratio to wild type); higher = more accumulation of the downstream cleavage product
- EXPERIMENTAL_CONDITIONS: experiment (reporter, strain, medium): exp 4a: truncated aprE reporter, strain BJT201 with 2% xylose (RNase J1 expressed); cleavage site: cggR-gapA (positions -7 to +36 mutated)

SEQUENCE_RECORD: ACAGACGAAGGAGCCGCATAGAAGTTATTAAGGGATGAATAATCCCTCAATATTAATATCTCTCACTTATTTAAA
cleaved RNA product abundance: 0.121
//
SEQUENCE_RECORD: ACAGACGAAGGAGCCGCAAAGAAGTTATTAAGAGATGTATAATCCCTCAATATAAATATCTCTCACTTATTTAAA
cleaved RNA product abundance: 0.229
//
SEQUENCE_RECORD: ACAGACGAAGGAGCCGCAAAGAAGTTATTAAGGGATGAACATTCCCTCAATATAAATATCTCTCACTTATTTAAA
cleaved RNA product abundance: 0.633
//
SEQUENCE_RECORD: ACAGACGAAGGAGCCGCAAAGAAGTTATTAAGGGATGAAAAATCCCTCAATATGAATATCTCTCACTTATTTAAA
cleaved RNA product abundance: 0.151

----------
- Test system: Bacillus subtilis
- MEASUREMENT_PROTOCOL: cleaved RNA product abundance (RNA/gDNA barcode ratio) relative to median wild-type variant (ratio to wild type); higher = more accumulation of the downstream cleavage product
- EXPERIMENTAL_CONDITIONS: experiment (reporter, strain, medium): exp 4a: truncated aprE reporter, strain BJT201 with 2% xylose (RNase J1 expressed); cleavage site: cggR-gapA (positions -7 to +36 mutated)
Assign classes using reported cleaved RNA product abundance values and the ranges low = under 0.1, intermediate = from 0.1 up to 0.2, high = 0.2 and over, please.

SEQUENCE_RECORD: ACAGACGAAGGAGCCGCAAAGAAGTTATTAAGGGATGAATAATCCCTCATTTTAAATATCTCTCACTTATTTAAA
CLASSIFICATION: intermediate

SEQUENCE_RECORD: ACAGACGAAGGAGCCGCAAAGAAGTTATTAAGGGATGAATAATCTCTCATTATAAATATCTCTCACTTATTTAAA
CLASSIFICATION: high

SEQUENCE_RECORD: ACAGACGAAGGAGCCGCAAAGAAGTCATTAAGGAATGAATAATCCCTCAATATAAATATCTCTCACTTATTTAAA
CLASSIFICATION: intermediate

SEQUENCE_RECORD: ACAGACGAAGGAGCCGCAAAGAAGTTACTAAGGGATGAATAATCCCTCAATATATATATCTCTCACTTATTTAAA
CLASSIFICATION: high

SEQUENCE_RECORD: ACAGACGAAGGAGCCGCAAAGAAGTTTTTAAGGCATGAATAATCCCTCAATATAAATATCTCTCACTTATTTAAA
CLASSIFICATION: intermediate

SEQUENCE_RECORD: ACAGACGAAGGAGCCGCAAAGAAGTTATAAAGGGATGAATAATCCCTCAATATAGATATCTCTCACTTATTTAAA
CLASSIFICATION: high

SEQUENCE_RECORD: ACAGACGAAGGAGCCGCAAAGAAGTTATTAATGGATGATTAATCCCTCAATATAAATATCTCTCACTTATTTAAA
CLASSIFICATION: intermediate

SEQUENCE_RECORD: ACAGACGAAGGAGCCGCATAAAAGTTATTAAGGCATGAATAATCCCTCAATATAAATATCTCTCACTTATTTAAA
CLASSIFICATION: low

SEQUENCE_RECORD: ACAGACGAAGGAGCCGCAAAGATGTTATTAAGGGATGAATAATACCTCAATATAAATATCTCTCACTTATTTAAA
CLASSIFICATION: intermediate

SEQUENCE_RECORD: ACAGACGAAGGAGCCGCAAAGAAGTTATTAAGGGACGAATAATCGCTCAATATAAATATCTCTCACTTATTTAAA
CLASSIFICATION: low

SEQUENCE_RECORD: ACAGACGAAGGAGCCGCAAAGAAGTTATTAAGCGATGAATAATTCCTCAATATAAATATCTCTCACTTATTTAAA
CLASSIFICATION: low

SEQUENCE_RECORD: ACAGACGAAGGAGCCGCAAAGAAGTTATTAAGTGATGTATAATCCCTCAATATAAATATCTCTCACTTATTTAAA
CLASSIFICATION: intermediate

SEQUENCE_RECORD: ACAGACGAAGGAGCCGCAAAGAAGTTATTAAGTGAAGAATAATCCCTCAATATAAATATCTCTCACTTATTTAAA
CLASSIFICATION: low

SEQUENCE_RECORD: ACAGACGAAGGAGCCGCAAAGAAGTTATTAACGGATGAATAATCCATCAATATAAATATCTCTCACTTATTTAAA
CLASSIFICATION: high

SEQUENCE_RECORD: ACAGACGAAGGAGCCGCAAAGAAGTTATTAAAGGATGAATAATCCGTCAATATAAATATCTCTCACTTATTTAAA
CLASSIFICATION: intermediate
